A2a EC50 as a ratio of that of NECA values for the molecules below.
# Experimental system: UniProt P29274
# Procedure summary: Agonist activity against adenosine 2a receptor (CHO cells, cAMP/SPAP reporter)
# Type: cell-based
# Condition description: CHO cells transfected with human receptor; basal cAMP via SPAP; mean of all the versions tested
Number only, please.

Below: 5 molecules and their reported A2a EC50 as a ratio of that of NECA.
CCn1nnc([C@H]2O[C@@H](n3cnc4c(NCc5cccc(I)c5)nc(NCCc5cn(C)cn5)nc43)[C@H](O)[C@@H]2O)n1 :: 0.84
CCn1nnc(C2OC(n3cnc4c(NC(CO)Cc5ccccc5)nc(NCCN5CCCCC5)nc43)C(O)C2O)n1 (stereo not shown) :: 3.91
Cn1nnc(C2OC(n3cnc4c(N)nc(NC(CO)Cc5ccccc5)nc43)C(O)C2O)n1 (stereo not shown) :: 0.52
CCC(CC)Nc1nc(NC2CCC(N)CC2)nc2c1ncn2C1OC(c2nnn(C)n2)C(O)C1O.O=CO.O=CO (stereo not shown) :: 1.61
CCn1nnc([C@H]2O[C@@H](n3cnc4c(NCc5cccc(I)c5)nc(NCCN5CCOCC5)nc43)[C@H](O)[C@@H]2O)n1 :: 4.12

Memo: Cn1cnc(CCNc2nc(NCCC(C)(C)C)c3ncn([C@@H]4O[C@H](c5nnn(C)n5)[C@@H](O)[C@H]4O)c3n2)c1.O=CO , reported A2a EC50 as a ratio of that of NECA: 0.36

Memo: CC(C)n1nnc([C@H]2O[C@@H](n3cnc4c(NCc5ccccc5)nc(NCCc5cn(C)cn5)nc43)[C@H](O)[C@@H]2O)n1.O=CO , reported A2a EC50 as a ratio of that of NECA: 6.07

----------
# Experimental system: adenosine 2a receptor (Homo sapiens)
# Procedure summary: Agonist activity against adenosine 2a receptor (CHO cells, cAMP/SPAP reporter)
# Assay type: cell-based
# Condition description: CHO cells transfected with human receptor; basal cAMP via SPAP; mean of all the versions tested
Heads up, the class ranges for A2a EC50 as a ratio of that of NECA are class A: < 0.6; class B: ≥ 0.6 and < 4; class C: ≥ 4

Lookup: Form: Item = CCC(CC)Nc1nc(NC2CCC(N)CC2)nc2c1ncn2C1OC(c2nnn(C(C)C)n2)C(O)C1O.O=CO.O=CO (stereo not drawn) ; Class = ?
Found: class B

----------
A2a EC50 as a ratio of that of NECA values for the compounds below.
# Experimental system: adenosine 2a receptor (Homo sapiens, UniProt P29274)
# Sequence (P29274 whole entry): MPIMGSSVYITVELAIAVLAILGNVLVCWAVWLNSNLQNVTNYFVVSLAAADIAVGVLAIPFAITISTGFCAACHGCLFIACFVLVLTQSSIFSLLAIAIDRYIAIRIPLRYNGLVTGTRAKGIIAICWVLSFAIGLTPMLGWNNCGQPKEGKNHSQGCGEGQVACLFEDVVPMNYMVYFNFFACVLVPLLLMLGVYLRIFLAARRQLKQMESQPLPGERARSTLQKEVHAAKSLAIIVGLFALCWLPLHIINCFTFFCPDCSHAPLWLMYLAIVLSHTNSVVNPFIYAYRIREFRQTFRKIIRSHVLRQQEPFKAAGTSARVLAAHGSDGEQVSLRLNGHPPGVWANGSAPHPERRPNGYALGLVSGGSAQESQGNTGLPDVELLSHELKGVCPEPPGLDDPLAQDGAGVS
# Procedure summary: Agonist activity against adenosine 2a receptor (CHO cells, cAMP/SPAP reporter)
# Format: cell-based
# Condition description: CHO cells transfected with human receptor; basal cAMP via SPAP; mean of all the versions tested

Below: 2 compounds and their reported A2a EC50 as a ratio of that of NECA.
CC(C)n1nnc(C2OC(n3cnc4c(NC5CCCC5)nc(NCCN5CCCC5)nc43)C(O)C2O)n1.O=CO.O=CO (stereo not drawn) [Example 81] :: 4.77
Cn1cnc(CCNc2nc(NC(CO)Cc3ccccc3)c3ncn(C4OC(c5nnn(C)n5)C(O)C4O)c3n2)c1 (stereo not drawn) [Example 32] :: 0.026

Memo: Cn1cnc(CCNc2nc(NCCC3CCCCC3)c3ncn([C@@H]4O[C@H](c5nnn(C)n5)[C@@H](O)[C@H]4O)c3n2)c1.O=CO [Example 31] , reported A2a EC50 as a ratio of that of NECA: 0.49

----------
# Experimental system: adenosine 1 receptor (Homo sapiens, UniProt P30542)
# Sequence (P30542 whole entry): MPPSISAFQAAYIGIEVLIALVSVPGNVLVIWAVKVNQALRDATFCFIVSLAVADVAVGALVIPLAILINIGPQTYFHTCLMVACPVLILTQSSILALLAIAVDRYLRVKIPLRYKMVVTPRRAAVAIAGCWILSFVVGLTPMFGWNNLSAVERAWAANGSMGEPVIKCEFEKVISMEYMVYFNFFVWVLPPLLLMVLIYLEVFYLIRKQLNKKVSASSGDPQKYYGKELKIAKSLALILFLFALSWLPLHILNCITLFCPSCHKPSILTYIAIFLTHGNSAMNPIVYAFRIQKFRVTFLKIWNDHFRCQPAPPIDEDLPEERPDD
# Procedure summary: Agonist activity against adenosine 1 receptor (CHO cells, forskolin-enhanced cAMP/SPAP reporter)
# Assay type: cell-based
# Condition description: CHO cells transfected with human receptor; forskolin-enhanced cAMP via SPAP; mean of all the versions tested
A1 EC50 as a ratio of that of NECA values for the molecules below.
Number only, please.

Below: 6 molecules and their reported A1 EC50 as a ratio of that of NECA.
COc1ccc(CCNc2nc(N)c3ncn([C@@H]4O[C@H](c5nnn(C(C)C)n5)[C@@H](O)[C@H]4O)c3n2)cc1OC.O=CO [Example 42] :: 414.9
CC(C)n1nnc([C@H]2O[C@@H](n3cnc4c(NCCc5ccccc5)nc(NCCc5cn(C)cn5)nc43)[C@H](O)[C@@H]2O)n1.O=CO [Example 57] :: 376.10
Cn1nnc(C2OC(n3cnc4c(NCC(c5ccccc5)c5ccccc5)nc(NCCc5ccccn5)nc43)C(O)C2O)n1.O=CO.O=CO (stereo not drawn) [Example 97] :: 1413.00
CCn1nnc(C2OC(n3cnc4c(NCCc5ccccc5)nc(NC5CCN(Cc6ccccc6)C5)nc43)C(O)C2O)n1.O=CO.O=CO (stereo not drawn) [Example 75] :: 121.50
CCn1nnc([C@H]2O[C@@H](n3cnc4c(NCCc5ccccc5)nc(NCCc5cn(C)cn5)nc43)[C@H](O)[C@@H]2O)n1.Cl.Cl [Example 4] :: 205.4
CCC(CC)Nc1nc(NCCN2CCCCC2)nc2c1ncn2C1OC(c2nnn(C(C)C)n2)C(O)C1O.O=CO.O=CO (stereo not drawn) [Example 68] :: 56.20

Then this molecule:
Memo: CC(C)n1nnc(C2OC(n3cnc4c(NC(CO)Cc5ccccc5)nc(NCCc5cn(C)cn5)nc43)C(O)C2O)n1 (stereo not drawn) [Example 40] , reported A1 EC50 as a ratio of that of NECA: 22.1

----------
# Experimental system: UniProt:P30542
# Procedure summary: Agonist activity against adenosine 1 receptor (CHO cells, forskolin-enhanced cAMP/SPAP reporter)
# Type: cell-based
# Condition description: CHO cells transfected with human receptor; forskolin-enhanced cAMP via SPAP; mean of all the versions tested
Property: A1 EC50 as a ratio of that of NECA

Memo: CCC(CC)Nc1nc(NC2CCCC2O)nc2c1ncn2C1OC(c2nnn(C)n2)C(O)C1O.O=CO.O=CO (stereo not drawn) , reported A1 EC50 as a ratio of that of NECA: >11750.00

----------
# Experimental system: adenosine 3 receptor (Homo sapiens)
# Sequence (P0DMS8 1-318): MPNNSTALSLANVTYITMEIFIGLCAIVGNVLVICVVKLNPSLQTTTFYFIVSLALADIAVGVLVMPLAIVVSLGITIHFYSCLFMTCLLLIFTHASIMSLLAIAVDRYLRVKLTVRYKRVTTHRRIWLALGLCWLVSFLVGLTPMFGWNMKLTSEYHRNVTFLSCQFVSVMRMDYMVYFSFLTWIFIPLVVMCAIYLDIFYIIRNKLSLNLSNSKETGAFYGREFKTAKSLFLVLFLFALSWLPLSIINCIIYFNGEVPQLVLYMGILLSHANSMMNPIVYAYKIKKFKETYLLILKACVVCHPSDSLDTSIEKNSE
# Procedure summary: Agonist activity against adenosine 3 receptor (CHO cells, forskolin-enhanced cAMP/SPAP reporter)
# Type: cell-based
# Condition description: CHO cells transfected with human receptor; forskolin-enhanced cAMP via SPAP; mean of all the versions tested
# Description: (1) Agonist activity against adenosine 2a, adenosine 1 and adenosine 3 receptor subtypes. The effect of test compounds was determined by their effects on basal levels of cAMP (A2a) or on forskolin-enhanced cAMP (A1 and A3) as reflected by changes in levels of SPAP.
A3 EC50 as a ratio of that of NECA values for the compounds below.

Below: 3 compounds and their reported A3 EC50 as a ratio of that of NECA.
Cn1nnc(C2OC(n3cnc4c(NCC(c5ccccc5)c5ccccc5)nc(NCCc5ccccn5)nc43)C(O)C2O)n1.O=CO.O=CO (stereo not shown) [Example 97] :: >240
CCn1nnc([C@H]2O[C@@H](n3cnc4c(N)nc(NC5CC6CCC5C6)nc43)[C@H](O)[C@@H]2O)n1.O=C(O)C(F)(F)F (stereo partly shown) [Example 19] :: >382
CCn1nnc([C@H]2O[C@@H](n3cnc4c(NCC(c5ccccc5)c5ccccc5)nc(NC5CCSCC5)nc43)[C@H](O)[C@@H]2O)n1.O=C(O)C(F)(F)F [Example 114] :: >2972.0

Memo: CCn1nnc(C2OC(n3cnc4c(NCC(c5ccccc5)c5ccccc5)nc(NC5CCNC5)nc43)C(O)C2O)n1 (stereo not shown) [Example 84] , reported A3 EC50 as a ratio of that of NECA: >103

----------
# Experimental system: adenosine 2a receptor (Homo sapiens)
# Procedure summary: Agonist activity against adenosine 2a receptor (CHO cells, cAMP/SPAP reporter)
# Format: cell-based
# Condition description: CHO cells transfected with human receptor; basal cAMP via SPAP; mean of all the versions tested
A2a EC50 as a ratio of that of NECA values for the compounds below.
Number only, please.

Result for CC(C)n1nnc([C@H]2O[C@@H](n3cnc4c(NCCc5ccccc5)nc(NCCc5cn(C)cn5)nc43)[C@H](O)[C@@H]2O)n1.O=CO , tested on adenosine 2a receptor (Homo sapiens), A2a EC50 as a ratio of that of NECA: 2.42

Result for CCn1nnc([C@H]2O[C@@H](n3cnc4c(N)nc(Nc5ccc(F)cc5)nc43)[C@H](O)[C@@H]2O)n1.O=C(O)C(F)(F)F , tested on adenosine 2a receptor (Homo sapiens), A2a EC50 as a ratio of that of NECA: 0.64

Result for Cn1nnc(C2OC(n3cnc4c(NCc5cccc(I)c5)nc(NC(CO)Cc5ccccc5)nc43)C(O)C2O)n1 (centres unmarked) , tested on adenosine 2a receptor (Homo sapiens), A2a EC50 as a ratio of that of NECA: 8.54

Result for CCn1nnc([C@H]2O[C@@H](n3cnc4c(NCC(c5ccccc5)c5ccccc5)nc(N[C@H]5CC[C@H](N)CC5)nc43)[C@H](O)[C@@H]2O)n1 (relative stereo) , tested on adenosine 2a receptor (Homo sapiens), A2a EC50 as a ratio of that of NECA: 0.53

Result for CCn1nnc([C@H]2O[C@@H](n3cnc4c(NCC(c5ccccc5)c5ccccc5)nc(NC5CCS(=O)(=O)C5)nc43)[C@H](O)[C@@H]2O)n1.O=C(O)C(F)(F)F.O=C(O)C(F)(F)F (some centres unmarked) , tested on adenosine 2a receptor (Homo sapiens), A2a EC50 as a ratio of that of NECA: 2.26

The origin of these recorded values is patent US6528494B2.
